Entry source: patent US10329299B2

# SYSTEM: γ isoform of human Class I PI3 kinases (Homo sapiens (Human))
# Sequence (P48736 whole entry, canonical isoform): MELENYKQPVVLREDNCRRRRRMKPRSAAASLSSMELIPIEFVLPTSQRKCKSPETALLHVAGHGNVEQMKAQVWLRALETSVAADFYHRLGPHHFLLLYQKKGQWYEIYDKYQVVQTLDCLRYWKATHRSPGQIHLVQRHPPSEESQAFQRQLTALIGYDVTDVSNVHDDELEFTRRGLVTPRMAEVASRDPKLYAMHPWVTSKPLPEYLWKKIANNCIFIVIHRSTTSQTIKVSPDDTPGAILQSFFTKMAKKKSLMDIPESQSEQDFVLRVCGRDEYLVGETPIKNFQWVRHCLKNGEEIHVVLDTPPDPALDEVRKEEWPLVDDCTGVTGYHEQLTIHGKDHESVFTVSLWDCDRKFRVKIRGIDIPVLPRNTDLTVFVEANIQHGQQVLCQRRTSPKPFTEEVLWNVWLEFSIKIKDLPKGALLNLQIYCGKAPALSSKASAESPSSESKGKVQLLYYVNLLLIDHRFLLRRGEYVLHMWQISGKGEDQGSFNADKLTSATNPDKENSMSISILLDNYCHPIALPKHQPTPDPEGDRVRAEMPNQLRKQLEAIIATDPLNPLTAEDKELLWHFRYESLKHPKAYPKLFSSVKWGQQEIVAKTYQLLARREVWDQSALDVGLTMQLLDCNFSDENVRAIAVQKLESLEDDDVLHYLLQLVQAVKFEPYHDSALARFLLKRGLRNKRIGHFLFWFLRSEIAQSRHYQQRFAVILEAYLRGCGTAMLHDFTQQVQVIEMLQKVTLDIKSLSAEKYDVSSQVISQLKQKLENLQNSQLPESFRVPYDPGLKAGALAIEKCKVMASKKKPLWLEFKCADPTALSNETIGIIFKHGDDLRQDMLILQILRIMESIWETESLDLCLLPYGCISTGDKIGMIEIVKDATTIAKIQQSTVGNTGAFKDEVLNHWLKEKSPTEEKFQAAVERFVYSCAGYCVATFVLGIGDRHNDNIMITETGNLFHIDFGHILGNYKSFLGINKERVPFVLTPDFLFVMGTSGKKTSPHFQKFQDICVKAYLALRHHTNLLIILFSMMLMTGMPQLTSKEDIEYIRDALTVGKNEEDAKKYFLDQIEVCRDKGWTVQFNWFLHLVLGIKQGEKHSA
# PROTOCOL_DESCRIPTION: PI3-Kinase Promega ADP-Glo Max assay, γ isoform
# CONDITIONS: read-out: PI3K γ IC50
pIC50: −log10 of the molar value.
RECORDED_ENDPOINT: pIC50

The value of pIC50 measured for the molecule C[C@H](NC(=O)c1c(N)nn2cccnc12)c1cc2cccc(C#Cc3ccn[nH]3)c2c(=O)n1-c1ccccc1 [Compound 43] turned out to be 6.30 to 7.00
